test system: corn (Zea mays); test: Test B preemergence; format: in vivo; settings: Preemergence, Rate 500 g/ha; scale 0 to 100, 0 no effect, 100 complete control
Measured Plant response rating, Corn values are reported for all entries that follow.
experimental.endpoint: Plant response rating, Corn

| compound | experimental.endpoint | recorded.value |
| --- | --- | --- |
| CC(C)(C)c1ccn(C2CCN(c3ccc4c(c3)CCC4)C2=O)n1 (stereo not drawn) [Compound 105] | Plant response rating, Corn | 0 |
| COc1cc(N2CCC(n3ccc(C(C)C)n3)C2=O)ccc1Br (stereo not drawn) [Compound 140] | Plant response rating, Corn | 20 |
| CC(C)(C)c1ccn(C2CCN(c3cccc(C(F)(F)F)c3)C2=S)n1 (stereo not drawn) [Compound 22] | Plant response rating, Corn | 0 |

###

test system: morning glory (Ipomoea hederacea); experiment: Test B postemergence; assay type: in vivo; conditions: Rate 125 g/ha, scale 0 (no effect) to 100 (complete control), 13 to 15 days
experimental.endpoint: Plant response rating, Morningglory

| compound | experimental.endpoint | recorded.value |
| --- | --- | --- |
| CC(C)(C)c1ccn(C2CCN(c3ccc(F)c(Cl)c3)C2=O)n1 (stereo not drawn) [Compound 46] | Plant response rating, Morningglory | 0 |
| Cc1ccn(C2CCN(c3cccc(C(F)(F)F)c3)C2=O)n1 (stereo not drawn) [Compound 16] | Plant response rating, Morningglory | 0 |
| CCC(C)c1ccn(C2OCN(c3cccc(OC(F)(F)F)c3)C2=O)n1 (stereo not drawn) [Compound 67] | Plant response rating, Morningglory | 0 |
| COc1cc(OC)cc(N2CCC(n3ccc(C(C)(C)C)n3)C2=O)c1 (stereo not drawn) [Compound 71] | Plant response rating, Morningglory | 20 |
| CC(C)(C)c1ccn(C2SCN(c3cccc(OC(F)(F)F)c3)C2=O)n1 (stereo not drawn) [Compound 30] | Plant response rating, Morningglory | 40 |
| CC(C)(C)c1ccn(C2CCN(c3cc(Cl)cc(Cl)c3)C2=O)n1 (stereo not drawn) [Compound 55] | Plant response rating, Morningglory | 0 |
| CC(C)(C)c1ccn(C2CCN(c3cccc(OC(F)(F)C(F)F)c3)C2=O)n1 (stereo not drawn) [Compound 48] | Plant response rating, Morningglory | 0 |
| CC1(c2ccn(C3SCN(c4cccc(OC(F)(F)F)c4)C3=O)n2)CC1 (stereo not drawn) [Compound 63] | Plant response rating, Morningglory | 0 |
| CCOC(=O)c1cccc(N2CCC(n3ccc(C(C)(C)C)n3)C2=O)c1 (stereo not drawn) [Compound 72] | Plant response rating, Morningglory | 20 |

###

Measured Plant response rating, Morningglory values are reported for all entries that follow.
test system: morningglory (Ipomoea hederacea); assay: Test C preemergence; type: in vivo; settings: Rate 125 g/ha; scale 0 to 100, 0 no effect, 100 complete control
experimental.endpoint: Plant response rating, Morningglory

| compound | recorded.value |
| --- | --- |
| CCOc1cc(N2CCC(n3ccc(C(C)(C)C)n3)C2=O)ccc1C (stereo not drawn) | 100 |
| CCCC(C)c1ccn(C2OCN(c3cccc(OC(F)(F)F)c3)C2=O)n1 (stereo not drawn) | 0 |
| CCC(C)c1ccn(C2CCN(c3cccc(OC)c3)C2=O)n1 (stereo not drawn) | 0 |
| COC(=O)c1cccc(N2CCC(n3ccc(C(C)(C)C)n3)C2=O)c1 (stereo not drawn) | 30 |
| CCC(CC)c1ccn(C2CCN(c3cccc(OC)c3)C2=O)n1 (stereo not drawn) | 0 |
| CCCC(C)c1ccn(C2CCN(c3cccc(OC)c3)C2=O)n1 (stereo not drawn) | 20 |
| COc1cc(N2CCC(n3ccc(C(C)C)n3)C2=O)ccc1C (stereo not drawn) | 90 |
| Cc1ccc(N2CCC(n3ccc(C(C)(C)C)n3)C2=O)cc1OCCCl (stereo not drawn) | 100 |
| CCCC(C)c1ccn(C2OCN(c3cccc(C(F)(F)F)c3)C2=O)n1 (stereo not drawn) | 0 |
